Parameter Cmax: see the listing below.
# testDetails: Maximum concentration in rat plasma at 30 mg/Kg upon oral administration.
# Assay type: ADME, organism-based
# Set-up: dose 30 mg/Kg, route oral
Give a bare numeral; the unit µM is implied.

compoundStructureString: COc1ccc2cc(S(=O)(=O)N[C@@H](Cc3ccc(CN)cc3)C(=O)N(C)C3CCCC3)ccc2c1
valueType: Cmax
endpointResult: 2.8
//
compoundStructureString: CN(C)c1cccc2c(S(=O)(=O)N[C@@H](Cc3ccc(CN)cc3)C(=O)N(C)C3CCCC3)cccc12
valueType: Cmax
endpointResult: 3.3

Consider the record given below.
query: Quick check: Cmax of CN(C(=O)[C@H](Cc1ccc(CN)cc1)NS(=O)(=O)c1ccc2c(c1)CCCCC2)C1CCCC1 ?
result: 3.5
